Tested on: ATP;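 also: ATP exposure 15 min at 22 °C before imaging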
Test: switch fluorescence ratio, 500 uM ATP over buffer (Cy3 cluster intensity, sum of 5 cycles each) (fold (ratio)); higher = stronger signal-on switching upon ATP binding; sequences stand for … in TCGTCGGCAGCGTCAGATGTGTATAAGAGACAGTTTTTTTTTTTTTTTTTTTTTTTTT…TC
Conditions: aptamer strand: ATP DNA aptamer (quencher-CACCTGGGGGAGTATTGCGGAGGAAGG + anchor), 100 nM annealed; ATP concentration: 500 uM
Endpoint label: switch fluorescence ratio
Answers are plain numbers.

Worked cases, answers included:
seq_text=GTTGTTTTCG endpoint_label="switch fluorescence ratio" assay_result=0.987
seq_text=AATCCTATCA endpoint_label="switch fluorescence ratio" assay_result=1.02
seq_text=ACAGACAGGC endpoint_label="switch fluorescence ratio" assay_result=1.05
seq_text=ATGAGCGGCG endpoint_label="switch fluorescence ratio" assay_result=0.992
seq_text=TAAGCGCGGC endpoint_label="switch fluorescence ratio" assay_result=1.05

Go through the list and state switch fluorescence ratio for each entry.
1. CTTAGGCCAG
2. GGGGCCGGGT
3. CAAGGTTTAC
4. CGATTTCCTA
5. TTGGTGTAAG
6. CTGCGTGCGG
7. TTAAGACGGT

Response given:
1. 0.998
2. 0.998
3. 0.988
4. 0.987
5. 1
6. 0.996
7. 1.03

Go through the list and state switch fluorescence ratio for each entry.
1. TTTATGATGG
2. AATCGTCAGG
3. TTGTTTGTAG
4. CATTTGACGG
5. TGAGCGTCGG
6. TGGTTATGTT
7. GGGCAAGCGA
8. TCCTAGCACT

Response given:
1.01
1.01
1.03
0.995
0.968
1.02
1.08
1.65
